target: Vasopressin V1a receptor (Homo sapiens, UniProt P37288); assay: Agonist activity at recombinant human vasopressin V1a receptor expressed in HEK293 cells by luciferase reporter gene assay; format: functional, cell-based; settings: read-out: EC50
Sequence (P37288 whole entry): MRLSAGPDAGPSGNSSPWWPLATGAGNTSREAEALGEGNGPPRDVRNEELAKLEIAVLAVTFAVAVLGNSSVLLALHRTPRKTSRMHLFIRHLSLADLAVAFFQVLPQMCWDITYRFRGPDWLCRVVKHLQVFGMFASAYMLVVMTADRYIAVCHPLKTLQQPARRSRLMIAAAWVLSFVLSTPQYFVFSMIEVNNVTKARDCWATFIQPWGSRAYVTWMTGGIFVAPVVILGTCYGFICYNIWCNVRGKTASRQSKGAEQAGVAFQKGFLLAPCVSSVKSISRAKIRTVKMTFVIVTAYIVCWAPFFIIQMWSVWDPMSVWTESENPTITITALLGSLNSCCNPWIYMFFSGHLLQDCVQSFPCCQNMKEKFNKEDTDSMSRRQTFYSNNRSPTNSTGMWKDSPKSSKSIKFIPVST
pEC50: −log10 of the molar value. Bridge positions count the residues as written; N and C are the ends. Square brackets hold non-standard residues; d marks the D form. Peptide text beside a SMILES is read from it. * marks the point of attachment. Orn(iPr) = CC(C)NCCC[C@H](N)C(=O)O; 2Thi = N[C@@H](Cc1cccs1)C(=O)O; Orn = NCCC[C@H](N)C(=O)O; NHOH = ON*

{"columns": ["compound", "pEC50"],
 "data": [
  ["CC[C@H](C)[C@@H]1NC(=O)[C@H](Cc2ccccc2)NC(=O)[C@@H](N)CSSC[C@@H](C(=O)N2CCC[C@H]2C(=O)N[C@@H](CCCN)C(=O)NCC(N)=O)NC(=O)[C@H](CC(N)=O)NC(=O)[C@H](CCC(=O)NO)NC1=O (H-CFIE(NHOH)NCP[Orn]G-NH2; disulfide 1-6)", 7.92],
  ["CC[C@H](C)[C@@H]1NC(=O)[C@H](Cc2cccs2)NC(=O)[C@@H](N)CSSC[C@@H](C(=O)N2CCC[C@H]2C(=O)N[C@@H](CCCNC(C)C)C(=O)NCC(N)=O)NC(=O)[C@H](CC(N)=O)NC(=O)[C@H](CC(N)=O)NC1=O (H-C[2Thi]INNCP[Orn(iPr)]G-NH2; disulfide 1-6)", 7.85]
]}
